Molecular target: human muscarinic M1 receptor (Homo sapiens, UniProt P11229)
Sequence (P11229 whole entry): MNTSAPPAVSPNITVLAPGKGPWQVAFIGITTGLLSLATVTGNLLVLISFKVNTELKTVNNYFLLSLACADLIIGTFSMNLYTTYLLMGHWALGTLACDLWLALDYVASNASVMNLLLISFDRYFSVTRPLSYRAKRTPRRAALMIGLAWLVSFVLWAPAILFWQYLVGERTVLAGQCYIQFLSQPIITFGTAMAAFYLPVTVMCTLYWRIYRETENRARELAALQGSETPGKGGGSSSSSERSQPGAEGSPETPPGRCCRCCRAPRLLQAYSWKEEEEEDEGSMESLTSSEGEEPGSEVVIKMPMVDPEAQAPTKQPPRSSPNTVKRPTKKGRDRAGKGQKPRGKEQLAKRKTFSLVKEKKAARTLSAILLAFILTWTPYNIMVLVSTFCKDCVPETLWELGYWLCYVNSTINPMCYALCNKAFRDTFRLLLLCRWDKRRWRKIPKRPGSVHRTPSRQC
Assay: Alphascreen Surefire phospho-ERK1/2 functional assay, M1
Assay type: cell-based
Conditions: CHO, read-out: M1 % Emax cf. ACh, CHO cells stably expressing human M1; Emax relative to ACh
outcome_measure: Emax (%)

# molecule, Emax [%]
records = [
    ("CCOC(=O)N1CCCN(C2CCC(C#N)(c3cccc(C)c3)CC2)CC1 (mixture of isomers) [3-8 mixture of isomers]", 106),
]

(1) CCOC(=O)N[C@H]1CCN(C2CCC(C#N)(c3cccc(Cl)c3)CC2)C1 (single isomer, unassigned) [1-10 Isomer 2]
(2) CCc1noc(C2CC3(CCN(C4CCC5(CC4)C(=O)Nc4ccccc45)C3)C2)n1 (single isomer, unassigned) [26-3 Isomer 1]
Asked: I need your help: which of the pair 1 , 2 has higher Emax? To answer, give the label that identifies your chosen option.
Given back: 1

###

Target: human muscarinic M1 receptor (Homo sapiens)
Assay: Alphascreen Surefire phospho-ERK1/2 functional assay, M1
Assay type: cell-based
Conditions: CHO, read-out: M1 % Emax cf. ACh, CHO cells stably expressing human M1; Emax relative to ACh
outcome_measure: Emax (%)

# molecule, numeric_readout
records = [
    ("CCOC(=O)N[C@H]1CCN(C2CCC3(CC2)C(=O)Nc2c(C)cccc23)C1 (single isomer, unassigned) [2-3 isomer 1]", 32),
    ("CCOC(=O)N1CCCN(C2CCC(C#N)(c3cccc(Cl)c3)CC2)CC1 (mixture of isomers) [3-5 mixture of isomers]", 101),
    ("CCOC(=O)N(C)[C@@H]1CCN(C2CCC3(CC2)C(=O)Nc2ncccc23)C1 (single isomer, unassigned) [2-18 isomer 1]", 122),
]

(P) CCOC(=O)N1CC2(CCN(C3CCC4(CC3)C(=O)Nc3ccccc34)C2)C1 (mixture of isomers) [10-1 mixture of isomers]
(Q) CCOC(=O)N1CCCN(C2CCC(c3nc(CC)c(C)[nH]3)CC2)CC1 (single isomer, unassigned) [5-1 Isomer 2]
(R) Cc1ccc2c(c1)C1(CCC(N3CCC4(CC(c5nc(C)no5)C4)C3)CC1)C(=O)N2 (single isomer, unassigned) [26-1 Isomer 2]
Asked: Rank entries according to their Emax, from the largest number down. The labels, placed in the requested order, form the answer.
Given back: Q, R, P

###

Target: human muscarinic M4 receptor (Homo sapiens, UniProt P08173)
Construct: expressed in transfected cells
Sequence (P08173 whole entry): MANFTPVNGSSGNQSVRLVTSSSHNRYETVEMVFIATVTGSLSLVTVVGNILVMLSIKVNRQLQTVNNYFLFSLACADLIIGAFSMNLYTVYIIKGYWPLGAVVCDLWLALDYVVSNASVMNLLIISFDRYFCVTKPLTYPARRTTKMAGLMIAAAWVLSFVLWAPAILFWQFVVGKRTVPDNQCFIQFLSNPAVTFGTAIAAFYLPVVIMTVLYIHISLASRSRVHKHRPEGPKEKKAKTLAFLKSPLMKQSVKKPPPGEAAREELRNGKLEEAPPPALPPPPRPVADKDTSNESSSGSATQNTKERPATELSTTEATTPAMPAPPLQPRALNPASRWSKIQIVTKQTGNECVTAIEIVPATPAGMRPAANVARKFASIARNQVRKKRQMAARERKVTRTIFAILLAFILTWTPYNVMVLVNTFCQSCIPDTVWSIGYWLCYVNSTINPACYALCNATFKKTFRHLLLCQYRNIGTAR
Assay: Alphascreen Surefire phospho-ERK1/2 functional assay, M4
Assay type: cell-based
Settings: CHO, read-out: M4 % Emax cf. ACh, CHO cells stably expressing human M4; Emax relative to ACh
outcome_measure: Emax (%)

Worked examples, 5 compounds total:
# compound, Emax (%)
data = [
    ("COc1ccc(C2(C#N)CCC(N3CCC4(CC(c5nc(C)no5)C4)C3)CC2)nc1 (single isomer, unassigned) [21-4 Isomer 4]", 68),
    ("CCOC(=O)N1CCCN(C2CCC3(CC2)C(=O)Nc2ccc(C)cc23)CC1 (single isomer, unassigned) [4-7 isomer 1]", 100),
    ("CCOC(=O)N1CCCN(C2CCC(C#N)(c3ccc(C(F)(F)F)cn3)CC2)CC1 (mixture of isomers) [3-21 mixture of isomers]", 53),
    ("CCOC(=O)N[C@H]1CCN(C2CCC(C#N)(c3cccc(F)c3)CC2)C1 (single isomer, unassigned) [1-3 Isomer 2]", 13),
    ("CCOC(=O)N[C@H]1CCN(C2CCC(C#N)(c3ccc(Cl)cn3)CC2)C1 (single isomer, unassigned) [1-15 Isomer 2]", 7),
]

(I) CCOC(=O)N1CCC2CN(C3CCC(C#N)(c4ccccc4)CC3)CC21 (single isomer, unassigned) [15-1 Isomer 2]
(II) CCOC(=O)N1CCCN(C2CCC(C#N)(c3ccccn3)CC2)CC1 (mixture of isomers) [3-11 mixture of isomers]
Asked: Given the two records I and II , choose the one whose Emax value is lower. Provide the label of your selected option as the answer.
Given back: I

(P) CCOC(=O)N1CCCN(C2CCC3(CC2)C(=O)Nc2ccc(OC)nc23)CC1 (single isomer, unassigned) [4-24 isomer 1]
(Q) COc1ccc2c(c1)C1(CCC(N3CCC[C@@H](c4nc(C)no4)C3)CC1)C(=O)N2 (single isomer, unassigned) [22-2 Isomer 1]
(R) CCOC(=O)N[C@H]1CCN(C2CCC3(CC2)C(=O)Nc2c(C)cccc23)C1 (single isomer, unassigned) [2-3 isomer 1]
Asked: Arrange the 3 compounds from largest to smallest Emax. Please, when replying, give the labels in the order that was requested.
Given back: P, Q, R
(P: 61%, Q: 42%, R: 1%)

(1) CCOC(=O)N1CCCN(C2CCC(C#N)(c3cccc(Cl)c3)CC2)CC1 (mixture of isomers) [3-5 mixture of isomers]
(2) CCOC(=O)N1CCCN(C2CCC(C#N)(c3ccc(Br)cn3)CC2)CC1 (single isomer, unassigned) [3-17 Isomer 1]
Asked: Just curious, which one has the larger Emax reading, 1 or 2 ? Pick one; state its label.
Given back: 2

(P) CCOC(=O)N[C@H]1CCN(C2CCC3(CC2)C(=O)Nc2cccc(C)c23)C1 (single isomer, unassigned) [2-6 isomer 1]
(Q) CCOC(=O)N1CCC2(CCN(C3CCC4(CC3)C(=O)Nc3ccccc34)CC2)C1 (single isomer, unassigned) [12-1 isomer 1]
(R) CCOC(=O)N[C@H]1CCN(C2CCC(C#N)(c3ccccc3)CC2)C1 (single isomer, unassigned) [1-1 Isomer 2]
(S) CCOC(=O)N[C@H]1CCN(C2CCC(C#N)(c3ccc(F)cn3)CC2)C1 (single isomer, unassigned) [1-14 Isomer 2]
Asked: Your job: order these 4 records by Emax, ascending. # the answer lists labels in the order requested
Given back: R, S, P, Q
(R: 18%, S: 32%, P: 54%, Q: 82%)
